# MEASURED_TARGET: Indoleamine 2,3-dioxygenase 1 (Homo sapiens)
# Sequence (P14902 whole entry): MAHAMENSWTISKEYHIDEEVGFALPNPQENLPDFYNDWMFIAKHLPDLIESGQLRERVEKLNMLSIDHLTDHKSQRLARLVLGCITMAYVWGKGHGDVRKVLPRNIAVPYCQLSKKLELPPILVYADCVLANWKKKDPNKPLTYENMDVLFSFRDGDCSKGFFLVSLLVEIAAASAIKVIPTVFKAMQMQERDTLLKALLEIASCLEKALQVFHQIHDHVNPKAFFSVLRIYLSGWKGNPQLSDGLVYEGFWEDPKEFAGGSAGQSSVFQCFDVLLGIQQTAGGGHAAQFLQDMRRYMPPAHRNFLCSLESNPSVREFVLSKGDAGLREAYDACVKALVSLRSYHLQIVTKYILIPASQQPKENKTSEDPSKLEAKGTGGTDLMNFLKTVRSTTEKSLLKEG
# ASSAY_INFO: Inhibition of recombinant human IDO1 assessed as reduction in N-formylkynurenine formation using L-tryptophan as substrate and measured after 15 mins
OBSERVATION_TYPE: IC50 (µM)

> print(dat)
                            smiles.notation  sign  reported.value
1  CC1(C)C(=O)C=Cc2c1ccc1c2C(=O)C(=O)c2c(C=O)coc2-1     >              10
2  C[C@H]1COC2=C1C(=O)C(=O)c1c2ccc2c1CCCC2(C)C     =              10
3  Cc1coc2c1C(=O)C(=O)c1c-2ccc2c1C=CCC2(C)C     >              10
4  CC(=O)O[C@H]1CCc2c(ccc3c2C(=O)C(=O)c2c(C)coc2-3)C1(C)C     =             0.4
